target: UGT2B10 (Homo sapiens); construct: recombinant UGT2B10; assay: inhibition of cotinine N-glucuronidation by recombinant enzyme, UHPLC-MS/MS; format: biochemical
Sequence (P36537 24-528): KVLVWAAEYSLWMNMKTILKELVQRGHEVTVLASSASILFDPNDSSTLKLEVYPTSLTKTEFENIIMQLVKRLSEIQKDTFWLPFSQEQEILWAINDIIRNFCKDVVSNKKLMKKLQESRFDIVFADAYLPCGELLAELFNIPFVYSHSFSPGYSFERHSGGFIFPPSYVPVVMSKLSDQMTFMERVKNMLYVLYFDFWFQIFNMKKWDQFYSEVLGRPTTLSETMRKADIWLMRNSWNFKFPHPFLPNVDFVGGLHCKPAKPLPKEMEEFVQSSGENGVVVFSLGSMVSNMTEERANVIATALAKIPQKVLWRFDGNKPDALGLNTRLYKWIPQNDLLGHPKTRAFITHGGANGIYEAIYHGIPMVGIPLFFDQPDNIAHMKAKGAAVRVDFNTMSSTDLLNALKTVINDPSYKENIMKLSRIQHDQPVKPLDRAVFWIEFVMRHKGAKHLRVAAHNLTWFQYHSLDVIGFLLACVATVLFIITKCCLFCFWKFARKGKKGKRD
value-type: IC50 (nM)
All answers are understood in nM, so give the number only.

// query Fill blank: measured IC50 of the compound O=C1Nc2ccc(Cl)cc2C(c2ccccc2Cl)=NC1O (stereo not shown) is ____.
// result 10

###

target: UGT2B10 (Homo sapiens); construct: recombinant UGT2B10; assay: inhibition of cotinine N-glucuronidation by recombinant enzyme, UHPLC-MS/MS; format: biochemical; conditions: read-out: IC50
value-type: pIC50
Reminder that pIC50 is minus the log10 of a molar concentration.

// query What does the data say about its pIC50? Entry: COc1c(C)c2c(c(O)c1C/C=C(\C)CCC(=O)O)C(=O)OC2
// result 3.42
